Tested on: MS2 coat protein
Test: apparent KD of MS2 coat protein; designed switch direction (-1 OFF switch, 1 ON switch): -1; higher = weaker reporter binding
Details: input ligand: none
experimental_endpoint: apparent KD of MS2 coat protein (µM)
Write down the numeric answer in µM and omit the unit.

record_sequence: UAUGAUGCAGGAUAUACAUGAGGAUCACCCAUGUCUCCAAGGGAUAAAGCCAGGCGCUGUAGAAGGGCGACGAC [Eternabot (L1) Solution 28] (Eterna round: R97, puzzle: Exclusion 3)
apparent KD of MS2 coat protein, µM: 0.0274
//
record_sequence: GCCUUAUCGGUCAGGAUAUACACCCGUCACUUGUUGUAGAAGGGACAUGAGGAUCACCCAUGUACAUUACAUUG [alecazam37] (Eterna round: R97, puzzle: Brourd's mod of Exclusion 4)
apparent KD of MS2 coat protein, µM: 0.026
//
record_sequence: CCGAAACAUGAGGAUCACCCAUGUCAGGAUAUUCCAAAAUCGUCGAAAGACGAUAACAGAAGAAGGGACAUCGG [Fiskxlusion 1 - Jieux - Exclusion 1] (Eterna round: R97, puzzle: Exclusion 1)
apparent KD of MS2 coat protein, µM: 0.058

Lab note: need apparent KD of MS2 coat protein with MS2 coat protein for entry GGUGGGCUAGGAUAUGCUUUGGGUGGGCAUUCCUUCGAUAAACUUGAGGAUCACCCAAGUAGAAGGAGCUUGCC [salish99_ex2_r4_023] (Eterna round: R97, puzzle: Exclusion 2) , please look it up.
0.0354

Query for MS2 coat protein: what apparent KD of MS2 coat protein does the record show for ACAUGUAAUGUAGGAUAUUUUACACAUGAGGAUCACCCAUGUGACCGGAGGCUUUACUAUGAGUAAAAGAAGGGUAUGUACAUG [Ex NG2 #61] (Eterna round: R96, puzzle: Exclusion NG 2) ?
0.0458

For MS2 coat protein, provide apparent KD of MS2 coat protein of AGACACUGAGGAUAUACAUGAGGAUCACCCAUGUAUGGGAAAUACGAAUGUAUUAGUUGUAGAAGGUGGUGUCG [Eternabot (L1) Solution 10] (Eterna round: R97, puzzle: Exclusion 3) please.
0.199

Quick check: apparent KD of MS2 coat protein on MS2 coat protein, item AGCGAAGAGACAGGAUAUGAGAAUAGAUAGAACUCAGAAGGGUCACAUGAGGAUCACCCAUGUAAAGUCUUGAGGCUGCGUGGU [Prohibition 9 - Jieux - Exclusion NG 1] (Eterna round: R96, puzzle: Exclusion NG 1) ?
0.0719

Give MS2 coat protein apparent KD of MS2 coat protein for GUCAGCUCGUGAGGAUAUACAUGAGGAUCACCCAUGUGGUCAAUAGCAGCUUCGGCUGCAAUAAUGUAGAAGGCACGAGCUGAC [ENG2/8-D] (Eterna round: R96, puzzle: Exclusion NG 2)
0.208

Please tell me: apparent KD of MS2 coat protein of CGCCGAGUGUUAGGAUAUUACAAGCAUAAGCGGUAAGAAGGAACAUGAGGAUCACCCAUGUACUGUCCCAUCGGGACAGGUUUC [Qule] (Eterna round: R96, puzzle: Exclusion NG 1) , system MS2 coat protein?
0.0768
